Cited source: paper PMC10005547

Assay: in vitro
Design: CCK-8 cell viability assay, absorbance at 450 nm
Settings: human, mcf-10a cells; read-out: MCF-10A (IC50)
Entries and their CC50 at 96 h
recorded_metric: CC50 at 96 h

CC1(C)OB(c2ccc(/C=C/C3=CC(=C(C#N)C#N)c4cc(O)ccc4O3)cc2)OC1(C)C [P1]: > 100 µM
C=CS(=O)(=O)Oc1ccc2c(c1)C(=C(C#N)C#N)C=C(/C=C/c1ccc(B3OC(C)(C)C(C)(C)O3)cc1)O2 [P2]: > 100 µM

----------
Entries and their Ki
Target: ERβ (Homo sapiens, UniProt Q92731)
Construct: gene ESR2
Sequence (Q92731 whole entry): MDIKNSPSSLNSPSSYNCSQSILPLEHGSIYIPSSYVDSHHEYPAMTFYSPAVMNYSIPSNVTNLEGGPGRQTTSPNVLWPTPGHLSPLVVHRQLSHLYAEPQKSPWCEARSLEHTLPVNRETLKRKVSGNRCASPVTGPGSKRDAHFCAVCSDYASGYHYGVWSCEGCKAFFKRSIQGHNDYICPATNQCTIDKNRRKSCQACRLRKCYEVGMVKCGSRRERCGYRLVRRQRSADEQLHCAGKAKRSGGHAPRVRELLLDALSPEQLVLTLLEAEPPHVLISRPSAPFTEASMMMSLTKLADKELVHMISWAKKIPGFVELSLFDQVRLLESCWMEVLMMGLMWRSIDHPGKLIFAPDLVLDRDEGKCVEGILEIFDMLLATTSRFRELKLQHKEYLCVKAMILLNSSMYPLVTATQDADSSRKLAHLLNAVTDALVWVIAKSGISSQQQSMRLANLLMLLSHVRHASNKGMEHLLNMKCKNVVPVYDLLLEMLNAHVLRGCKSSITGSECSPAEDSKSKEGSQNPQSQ
Assay: fluorescence polarization competition against a fluorescent ligand
Type: binding
recorded_metric: Ki (µM)

C=CS(=O)(=O)Oc1ccc2c(c1)C(=C(C#N)C#N)C=C(/C=C/c1ccc(B3OC(C)(C)C(C)(C)O3)cc1)O2 [P2]: 1.21
CC1(C)OB(c2ccc(/C=C/C3=CC(=C(C#N)C#N)c4cc(O)ccc4O3)cc2)OC1(C)C [P1]: 1.42
